Measured koff, listed per entry.
measurement.target: T1, Clostridium difficile toxin A (TcdA) (Clostridium difficile strain 10463, UniProt P16154 1-2710)
T1 construct: range 1-2710
T1 sequence (P16154 whole entry): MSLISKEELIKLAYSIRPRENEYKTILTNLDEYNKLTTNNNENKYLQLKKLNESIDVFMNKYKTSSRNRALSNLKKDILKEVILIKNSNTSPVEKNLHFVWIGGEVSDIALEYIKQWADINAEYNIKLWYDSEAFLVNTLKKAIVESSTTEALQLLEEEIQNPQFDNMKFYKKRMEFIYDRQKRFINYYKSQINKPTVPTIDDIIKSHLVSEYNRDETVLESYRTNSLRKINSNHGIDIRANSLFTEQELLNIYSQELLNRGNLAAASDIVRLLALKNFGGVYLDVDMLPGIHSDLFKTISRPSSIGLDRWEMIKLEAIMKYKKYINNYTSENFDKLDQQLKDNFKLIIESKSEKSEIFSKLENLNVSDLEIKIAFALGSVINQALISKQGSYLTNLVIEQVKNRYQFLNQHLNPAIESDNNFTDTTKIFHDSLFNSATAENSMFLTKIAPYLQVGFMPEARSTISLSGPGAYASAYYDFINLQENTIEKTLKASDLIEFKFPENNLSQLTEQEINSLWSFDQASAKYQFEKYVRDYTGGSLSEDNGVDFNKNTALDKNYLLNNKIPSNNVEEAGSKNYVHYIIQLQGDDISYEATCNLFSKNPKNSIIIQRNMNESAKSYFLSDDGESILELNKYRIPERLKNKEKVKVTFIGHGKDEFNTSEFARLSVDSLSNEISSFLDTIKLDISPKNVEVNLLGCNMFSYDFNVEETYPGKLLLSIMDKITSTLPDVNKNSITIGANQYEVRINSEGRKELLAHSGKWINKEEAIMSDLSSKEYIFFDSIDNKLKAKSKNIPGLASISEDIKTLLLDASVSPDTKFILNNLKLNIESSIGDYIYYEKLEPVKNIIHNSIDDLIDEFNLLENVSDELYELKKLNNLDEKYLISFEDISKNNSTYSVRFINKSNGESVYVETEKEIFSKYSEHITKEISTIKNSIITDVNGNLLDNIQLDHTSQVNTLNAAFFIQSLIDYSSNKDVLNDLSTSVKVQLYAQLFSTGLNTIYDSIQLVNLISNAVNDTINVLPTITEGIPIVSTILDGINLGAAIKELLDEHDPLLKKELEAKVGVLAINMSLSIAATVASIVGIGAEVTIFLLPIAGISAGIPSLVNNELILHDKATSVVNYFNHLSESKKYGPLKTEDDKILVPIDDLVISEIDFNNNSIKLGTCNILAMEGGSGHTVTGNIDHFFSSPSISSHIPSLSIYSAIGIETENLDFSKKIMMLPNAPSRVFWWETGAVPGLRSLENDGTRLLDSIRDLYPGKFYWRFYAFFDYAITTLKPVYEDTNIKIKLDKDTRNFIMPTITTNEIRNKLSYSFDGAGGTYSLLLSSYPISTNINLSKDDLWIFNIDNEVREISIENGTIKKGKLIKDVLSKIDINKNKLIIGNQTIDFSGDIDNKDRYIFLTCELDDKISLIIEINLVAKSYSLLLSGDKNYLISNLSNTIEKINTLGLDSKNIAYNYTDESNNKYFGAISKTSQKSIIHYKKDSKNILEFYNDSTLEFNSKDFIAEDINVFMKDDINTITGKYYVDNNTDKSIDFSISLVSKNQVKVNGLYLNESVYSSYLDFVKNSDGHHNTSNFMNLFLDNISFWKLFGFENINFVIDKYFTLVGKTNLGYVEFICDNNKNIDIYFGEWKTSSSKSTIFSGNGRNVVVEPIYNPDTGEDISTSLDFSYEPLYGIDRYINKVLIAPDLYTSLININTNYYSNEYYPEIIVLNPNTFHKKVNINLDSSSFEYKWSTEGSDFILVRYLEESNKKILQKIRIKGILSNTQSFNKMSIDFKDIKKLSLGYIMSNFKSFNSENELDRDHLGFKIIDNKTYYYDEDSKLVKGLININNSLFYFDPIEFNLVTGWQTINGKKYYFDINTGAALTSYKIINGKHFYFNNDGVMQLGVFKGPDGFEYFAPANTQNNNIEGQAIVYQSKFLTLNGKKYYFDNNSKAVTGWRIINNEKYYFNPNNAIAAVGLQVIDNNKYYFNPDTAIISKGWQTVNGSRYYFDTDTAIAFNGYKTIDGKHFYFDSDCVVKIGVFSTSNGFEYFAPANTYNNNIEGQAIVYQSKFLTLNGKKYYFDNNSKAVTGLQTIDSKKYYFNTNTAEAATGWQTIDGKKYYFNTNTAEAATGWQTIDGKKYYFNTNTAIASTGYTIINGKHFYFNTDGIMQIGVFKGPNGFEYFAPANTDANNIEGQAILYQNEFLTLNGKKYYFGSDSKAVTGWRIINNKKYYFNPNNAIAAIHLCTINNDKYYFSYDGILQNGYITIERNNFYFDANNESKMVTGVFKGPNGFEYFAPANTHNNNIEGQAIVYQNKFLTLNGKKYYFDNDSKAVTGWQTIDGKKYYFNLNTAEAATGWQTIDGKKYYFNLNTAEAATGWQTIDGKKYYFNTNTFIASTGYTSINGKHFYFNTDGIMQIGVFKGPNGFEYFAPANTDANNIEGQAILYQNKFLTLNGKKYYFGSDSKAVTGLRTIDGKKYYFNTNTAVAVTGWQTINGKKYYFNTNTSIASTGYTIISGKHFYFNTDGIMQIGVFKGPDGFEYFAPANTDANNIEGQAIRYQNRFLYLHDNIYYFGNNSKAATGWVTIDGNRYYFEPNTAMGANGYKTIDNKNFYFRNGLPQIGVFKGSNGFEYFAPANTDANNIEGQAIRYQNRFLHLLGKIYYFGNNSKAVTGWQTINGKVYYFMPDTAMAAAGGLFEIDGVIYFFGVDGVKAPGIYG
test: SPR, TcdA immobilized; same value as in Table 1
experimental.readout: koff (s⁻¹)

>>> readout_number("A20.1 (VHH, also called anti-TcdA VHH A20.1) VHH: QVQLVESGGGLAQAGGSLRLSCAASGRTFSMDPMAWFRQPPGKEREFVAAGSSTGRTTYYADSVKGRFTISRDNAKNTVYLQMNSLKPEDTAVYYCAAAPYGANWYRDEYAYWGQGTQVTVSS")
0.0016
>>> readout_number("A4.2 (VHH, also called anti-TcdA VHH A4.2) VHH: QVKLEESGGGLVQAGGSLRLSCAASGRTFNTLSMGWFRQAPGKEREFVAAVSRSGGSTYYADSVKGRFTISRDNAKNTVYLQMNSLKPEDTAVYYCAAAATKSNTTAYRLSFDYWGQGTQVTVSS")
0.016
